Each record here notes measured IC50.
target_or_test_system: human leukocyte elastase (HLE) (Homo sapiens, UniProt P08246)
Sequence (P08246 30-267): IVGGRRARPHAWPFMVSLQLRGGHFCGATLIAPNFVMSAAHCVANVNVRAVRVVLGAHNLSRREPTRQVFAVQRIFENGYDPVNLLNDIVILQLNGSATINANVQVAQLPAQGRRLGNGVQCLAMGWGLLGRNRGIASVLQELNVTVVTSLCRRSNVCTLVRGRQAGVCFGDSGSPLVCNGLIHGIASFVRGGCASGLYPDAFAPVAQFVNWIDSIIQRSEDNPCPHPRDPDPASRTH
protocol_text: HLE inhibition, MeO-Suc-Ala-Ala-Pro-Val-NA hydrolysis
Format: biochemical
condition_label: Table 4, Z-Leu--AA--CONH-R
Give the value, in units of µM, as a plain number.

compound	IC50 / µM
CC(C)C[C@H](NC(=O)OCc1ccccc1)C(=O)N[C@@H](Cc1ccccc1)C(=O)C(=O)NCC(O)c1cccc(Oc2cccc(C(F)(F)F)c2)c1 (stereo partly drawn)	70
CCC(C)NC(=O)C(=O)C(Cc1ccccc1)NC(=O)C(CC(C)C)NC(=O)OCc1ccccc1 (stereo not drawn) [Z-Leu-Phe-CONH-sec-Bu]	50
CCC(NC(=O)C(CC(C)C)NC(=O)OCc1ccccc1)C(=O)C(=O)NCC(O)c1ccc(OC)cc1 (stereo not drawn) [Z-Leu-Abu-CONH-CH2 CH(OH)-C6 H4 (4-OCH3), Z-Leu-Abu-CONH--CH2 CH(OH)C6 H4 (4-OCH3)]	32

Query: Answer with the recorded IC50 of CCNC(=O)C(=O)[C@H](Cc1ccccc1)NC(=O)[C@H](CC(C)C)NC(=O)OCc1ccccc1 [Z-Leu-Phe-CONH-Et, Z-Leu-Phe-CO--NH-Et] only.
Result: 74

Query: Answer with the recorded IC50 of CCC(NC(=O)C(CC(C)C)NC(=O)OCc1ccccc1)C(=O)C(=O)NCC(O)c1ccc(Oc2ccccc2)cc1 (stereo not drawn) [Z-Leu-Abu-CONH-CH2 CH(OH)-C6 H4 (4-OPh), Z-Leu-Abu-CONH--CH2 CH(OH)C6 H4 (4-OPh)] only.
Result: 28

Query: Answer with the recorded IC50 of CC(C)C[C@H](NC(=O)OCc1ccccc1)C(=O)N[C@@H](Cc1ccccc1)C(=O)C(=O)NCC(O)c1ccc(N(C)C)cc1 (stereo partly drawn) only.
Result: 28

* * *

target_or_test_system: calpain II from rabbit
protocol_text: Calpain II inhibition, Suc-Leu-Tyr-AMC hydrolysis (KI)
Assay type: biochemical
condition_label: Table 1, Z-Leu--AA--CONHR; read-out: KI Cal II
property_name: pKi
The meaning of pKi here: minus log10 of the concentration in molar units.

// solved cases for pKi follow
> print(dat)
                                   compound  result
1  CC(C)CC(NC(=O)OCc1ccccc1)C(=O)NC(Cc1ccccc1)C(=O)C(=O)NCc1ccc2ccccc2n1 (stereo not drawn)    7.64
2  CC(C)CC(NC(=O)OCc1ccccc1)C(=O)NC(Cc1ccccc1)C(=O)C(=O)NCc1ccccn1 (stereo not drawn)    6.19

Query: Answer briefly: pKi recorded on calpain II from rabbit for CCC(NC(=O)C(CC(C)C)NC(=O)OCc1ccccc1)C(=O)C(=O)NCc1cccnc1 (stereo not drawn)
Result: 6.92

* * *

target_or_test_system: Calpain I from human erythrocytes (Homo sapiens)
Construct: Calpain I was purified from human erythrocytes; from tissue; host or cells: human erythrocytes
Sequence (P07384 1-714): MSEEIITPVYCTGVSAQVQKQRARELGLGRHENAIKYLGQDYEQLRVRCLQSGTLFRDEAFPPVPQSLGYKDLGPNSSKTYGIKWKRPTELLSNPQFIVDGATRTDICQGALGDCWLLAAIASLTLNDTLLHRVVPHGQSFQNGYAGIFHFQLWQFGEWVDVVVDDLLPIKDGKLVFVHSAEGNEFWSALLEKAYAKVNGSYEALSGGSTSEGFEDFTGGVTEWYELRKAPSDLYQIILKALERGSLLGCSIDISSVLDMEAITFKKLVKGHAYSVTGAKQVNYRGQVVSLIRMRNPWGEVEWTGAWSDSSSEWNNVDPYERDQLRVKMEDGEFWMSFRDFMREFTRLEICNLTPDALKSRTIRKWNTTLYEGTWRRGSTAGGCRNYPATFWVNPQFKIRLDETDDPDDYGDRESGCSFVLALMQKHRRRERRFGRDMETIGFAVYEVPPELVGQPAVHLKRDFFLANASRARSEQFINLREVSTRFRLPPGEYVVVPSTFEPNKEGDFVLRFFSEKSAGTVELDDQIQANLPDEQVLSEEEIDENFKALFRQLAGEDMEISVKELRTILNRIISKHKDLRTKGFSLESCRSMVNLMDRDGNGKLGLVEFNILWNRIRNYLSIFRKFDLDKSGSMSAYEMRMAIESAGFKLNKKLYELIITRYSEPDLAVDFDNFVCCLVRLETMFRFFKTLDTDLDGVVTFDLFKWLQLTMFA
Sequence (P04632 1-268 partner): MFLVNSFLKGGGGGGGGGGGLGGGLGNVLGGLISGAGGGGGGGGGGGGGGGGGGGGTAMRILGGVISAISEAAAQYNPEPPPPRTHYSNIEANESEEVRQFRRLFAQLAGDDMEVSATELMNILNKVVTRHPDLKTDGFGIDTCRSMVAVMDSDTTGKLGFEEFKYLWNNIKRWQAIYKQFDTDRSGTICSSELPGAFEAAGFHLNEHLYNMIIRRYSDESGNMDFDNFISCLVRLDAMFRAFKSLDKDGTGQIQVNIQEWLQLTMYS
protocol_text: Calpain I inhibition, Suc-Leu-Tyr-AMC hydrolysis (KI)
Assay type: biochemical
condition_label: Table 3, M1 CO-Leu--AA--CONH-R; read-out: KI Cal I
Each record here notes measured Ki.
Give the value, in units of nM, as a plain number.

// solved cases for Ki follow
compound	target_or_test_system	Ki [nM]
CC(C)CC(NC(=O)C(c1ccccc1)c1ccccc1)C(=O)NC(Cc1ccccc1)C(=O)C(=O)NCc1ccccn1 (stereo not drawn)	Calpain I from human erythrocytes (Homo sapiens)	1100
CCC(NC(=O)C(CC(C)C)NC(=O)C(c1ccccc1)c1ccccc1)C(=O)C(=O)NCCCN1CCOCC1 (stereo not drawn)	Calpain I from human erythrocytes (Homo sapiens)	800
CCNC(=O)C(=O)C(CC)NC(=O)C(CC(C)C)NC(=O)C1CCCO1 (stereo not drawn) [2-tetrahydrofuryl-CO-Leu-Abu-CONH-Et, 2-Tetrahydrofuryl-CO-Leu-Abu-CONHEt]	Calpain I from human erythrocytes (Homo sapiens)	18500
CCNC(=O)C(=O)C(CC)NC(=O)C(CC(C)C)NC(=O)c1cccnc1 (stereo not drawn)	Calpain I from human erythrocytes (Homo sapiens)	1300
CCNC(=O)C(=O)C(CC)NC(=O)C(CC(C)C)NC(=O)c1nccc2ccccc12 (stereo not drawn)	Calpain I from human erythrocytes (Homo sapiens)	350

Query: Answer with the recorded Ki of CCNC(=O)C(=O)[C@H](CC)NC(=O)[C@H](CC(C)C)NC(=O)CCC(=O)OC only.
Result: 3800
